From: patent US20230100838A1

biological target: GDP-loaded K-Ras (1-169) G12D, C51S, C80L, C118S (Homo sapiens, UniProt P01116, C118S/C51S/C80L/G12D); construct: GDP-loaded K-Ras (1-169) G12D, C51S, C80L, C118S; test: K-Ras G12D(GDP) cross-linking assay (conjugate formation, TOF mass spectrometry); type: binding; details: Table 5; percent covalently modified K-Ras by MS; room temperature; typical compound conc. 2, 10, 25 μM, endpoints 1 and 24 h
valueType: G12D x-linking (%)

molecule	assayValue
Cc1cccc2cccc(N3CCc4c(nc(OC[C@@H]5CCCN5C)nc4N4CC[C@H](NC(=O)[C@H]5CN5)[C@@H](CC#N)C4)C3)c12	+ (0 < x ≤ 20)
Cc1ccnc(C(C)C)c1-n1c(=O)nc(N2CCN(C(=O)[C@H]3CN3)C[C@@H]2C)c2cc(F)c(-c3c(O)cccc3F)nc21	+ (0 < x ≤ 20)
CO[C@H]1CCCC[C@H]1N=C=NC1CCN(c2nc(OC[C@@H]3CCCN3C)nc3c2CCN(c2cccc4cccc(C)c24)C3)CC1	+ (0 < x ≤ 20)
COC1CC1N=C=NC1CCN(c2nc(OC[C@@H]3CCCN3C)nc3c2CCN(c2cccc4cccc(C)c24)C3)CC1 (stereo partly shown)	+++ (40 < x ≤ 100)
Cc1cccc2cccc(N3CCc4c(nc(OC[C@@H]5CCCN5C)nc4N4CCN(C(=O)[C@@H]5CN5)[C@@H](CC#N)C4)C3)c12	+ (0 < x ≤ 20)
COc1ccccc1CN=C=N[C@H]1CCN(c2nc(OC[C@@H]3CCCN3C)nc3c2CCN(c2cccc4cccc(C)c24)C3)C[C@@H]1CC#N	+ (0 < x ≤ 20)
COC(=O)[C@H]1CN1C(=O)N1CCN(c2nc(OC[C@@H]3CCCN3C)nc3c2CCN(c2cccc4cccc(C)c24)C3)C[C@@H]1CC#N	+ (0 < x ≤ 20)
Cc1ccnc(C(C)C)c1-n1c(=O)nc(N2CCC(CN=C=NCc3ccccc3)CC2)c2cc(F)c(-c3ccccc3F)nc21	+ (0 < x ≤ 20)
Cc1cccc2cccc(N3CCc4c(nc(OC[C@@H]5CCCN5C)nc4N4CCN(C(=O)[C@H]5CN5S(C)(=O)=O)[C@@H](CC#N)C4)C3)c12 (stereo partly shown)	+ (0 < x ≤ 20)
Cc1cccc2cccc(N3CCc4c(nc(OC[C@@H]5CCCN5C)nc4N4CCN(C(=O)[C@@H]5CN5S(C)(=O)=O)[C@@H](CC#N)C4)C3)c12 (stereo partly shown)	+ (0 < x ≤ 20)
COc1ccccc1CN=C=N[C@H]1C[C@H](Nc2nc(OC[C@@H]3CCCN3C)nc3c2CCN(c2cccc4cccc(C)c24)C3)C1	+ (0 < x ≤ 20)
COCCN=C=N[C@H]1CC[C@H](N(C)c2nc(OC[C@@H]3CCCN3C)nc3c2CCN(c2cccc4cccc(C)c24)C3)CC1	++ (20 < x ≤ 40)
Cc1ccnc(C(C)C)c1-n1c(=O)nc(N2[C@H](C)CN(C(=O)[C@@H]3CN3)C[C@H]2C)c2cc(F)c(-c3c(O)cccc3F)nc21	+ (0 < x ≤ 20)
CO[C@H]1CCC[C@H]1N=C=NC1CCN(c2nc(OC[C@@H]3CCCN3C)nc3c2CCN(c2cccc4cccc(C)c24)C3)CC1 (single isomer, unassigned)	+ (0 < x ≤ 20)
Cc1cccc2cccc(N3CCc4c(nc(OC[C@@H]5CCCN5C)nc4N4CCN(C(=O)[C@@H]5CN5Cc5ccccc5)[C@@H](CC#N)C4)C3)c12 (stereo partly shown)	+ (0 < x ≤ 20)
CN1CCC[C@H]1COc1nc2c(c(N3CCN(C(=O)[C@H]4CN4)[C@@H](CC#N)C3)n1)CCN(c1cccc3cccc(Cl)c13)C2	++ (20 < x ≤ 40)
COc1ccccc1CN=C=NC1CCN(c2nc(OC[C@@H]3CCCN3C)nc3c2CCN(c2cccc4cccc(C)c24)C3)CC1	+ (0 < x ≤ 20)
COCCN=C=N[C@@H]1CCN(c2nc(OC[C@@H]3CCCN3C)nc3c2CCN(c2cccc4cccc(C)c24)C3)C[C@@H]1CC#N	+++ (40 < x ≤ 100)
COCC1(N=C=NC2CCN(c3nc(OC[C@@H]4CCCN4C)nc4c3CCN(c3cccc5cccc(C)c35)C4)CC2)CC1	++ (20 < x ≤ 40)
CC(=O)N1C[C@H]1CN1CCN(c2nc(OC[C@@H]3CCCN3C)nc3c2CCN(c2cccc4cccc(C)c24)C3)C[C@@H]1CC#N	+ (0 < x ≤ 20)
Cc1ccnc(C(C)C)c1-n1c(=O)nc(N2CCN(C(=O)[C@@H]3CN3)C[C@@H]2C)c2cc(F)c(-c3c(O)cccc3F)nc21	+ (0 < x ≤ 20)
Cc1cccc2cccc(N3CCc4c(nc(OC[C@@H]5CCCN5C)nc4N4CCC(N=C=NC5CCN(C)CC5)CC4)C3)c12	+++ (40 < x ≤ 100)
O=C([C@@H]1CN1)N1CCN2c3ncnc4cc(-c5c(O)cccc5F)c(Cl)c(c34)OC[C@@H]2C1	0
Cc1ccnc(C(C)C)c1-n1c(=O)nc(N2[C@@H](C)CN(C(=O)[C@H]3CN3)C[C@@H]2C)c2cc(F)c(-c3c(O)cccc3F)nc21	+ (0 < x ≤ 20)
CCCN=C=NCC1CCN(c2nc(=O)n(-c3c(C)ccnc3C(C)C)c3nc(-c4ccccc4F)c(F)cc23)CC1	++ (20 < x ≤ 40)

---

Molecular target: GDP-loaded K-Ras (1-169) G12D, C51S, C80L, C118S (Homo sapiens, UniProt P01116, C118S/C51S/C80L/G12D)
Construct: GDP-loaded K-Ras (1-169) G12D, C51S, C80L, C118S
Test: K-Ras G12D(GDP) cross-linking assay (conjugate formation, TOF mass spectrometry)
Format: binding
Conditions: Table 4; percent covalently modified K-Ras by MS; room temperature; typical compound conc. 2, 10, 25 μM, endpoints 1 and 24 h
Experimental: Protocol: K-Ras G12D(GDP) Cross-Linking Assay […] GDP-loaded K-Ras (1-169) G12D, C51S, C80L, C118S and GDP-loaded K-Ras (1-169) C51S, C80L, C118S were adjusted to 50 μM in K-Ras assay buffer (12.5 mM HEPES, 75 mM NaCl and 1 mM MgCl2 at pH 7.4). […] At each time point, the reactions were analyzed immediately or quenched with 5 μL of a 5% formic acid solution and kept at 4° C. until analysis. […]
valueType: G12D x-linking (%)

compound	valueType	assayValue
COc1ccc(CN=C=NCCN(C)c2nc(OC[C@@H]3CCCN3C)nc3c2CCN(c2cccc4cccc(C)c24)C3)cc1 [Example 29]	G12D x-linking (%)	+++ (40 < x ≤ 100)
Cc1cccc2cccc(N3CCc4c(nc(OC[C@@H]5CCCN5C)nc4N4CCC(N=C=Nc5ccccc5)CC4)C3)c12 [Example 48]	G12D x-linking (%)	+ (0 < x ≤ 20)
O=C(NCCCl)NCCNc1ncnc2c(F)c(-c3ccccc3F)c(Cl)cc12 [Example 12]	G12D x-linking (%)	0
Cc1cccc2cccc(N3CCc4c(nc(OC[C@@H]5CCCN5C)nc4N4CCN(C(=O)C5CN5)CC4)C3)c12 (stereo partly shown) [Example 46]	G12D x-linking (%)	+ (0 < x ≤ 20)
CCCN=C=NC1CCN(c2nc(OC[C@@H]3CCCN3C)nc3c2CCN(c2cccc4cccc(C)c24)C3)CC1 [Example 22]	G12D x-linking (%)	+++ (40 < x ≤ 100)
Cc1cccc2cccc(N3CCc4c(nc(OC[C@@H]5CCCN5C)nc4N4CCC(N(C)C(=O)C5CN5C)CC4)C3)c12 (stereo partly shown) [Example 45]	G12D x-linking (%)	+ (0 < x ≤ 20)
Cc1cccc2cccc(N3CCc4c(nc(OC[C@@H]5CCCN5C)nc4N4CCC(C(O)(O)C(F)(F)F)CC4)C3)c12 [Example 51]	G12D x-linking (%)	+ (0 < x ≤ 20)

---

target: GDP-loaded K-Ras (1-169) G12D, C51S, C80L, C118S (Homo sapiens, UniProt P01116, C118S/C51S/C80L/G12D); construct: GDP-loaded K-Ras (1-169) G12D, C51S, C80L, C118S; test: K-Ras G12D(GDP) cross-linking assay (conjugate formation, TOF mass spectrometry); format: binding; conditions: Table 4; percent covalently modified K-Ras by MS; room temperature; typical compound conc. 2, 10, 25 μM, endpoints 1 and 24 h

molecule	G12D x-linking (%)
Cc1cccc2cccc(N3CCc4c(nc(OC[C@@H]5CCCN5C)nc4N4CCC(B(O)O)CC4)C3)c12 [Example 52]	+ (0 < x ≤ 20)
CC(=O)N1CC1C(=O)N1CCN(c2ncnc3c(F)c(-c4ccccc4F)c(Cl)cc23)CC1 (stereo not shown) [Example 17]	+ (0 < x ≤ 20)
Cc1cccc2cccc(N3CCc4c(nc(OC[C@@H]5CCCN5C)nc4N4CCC(N(C)C(=O)C5CN5)CC4)C3)c12 (stereo partly shown) [Example 42]	+ (0 < x ≤ 20)
CCCN=C=NCCCN(C)c1nc(=O)n(-c2c(C)ccnc2C(C)C)c2nc(-c3ccccc3F)c(F)cc12 [Example 55]	++ (20 < x ≤ 40)
Cc1cccc2cccc(N3CCc4c(nc(OC[C@@H]5CCCN5C)nc4N4CCC(N=C=NCc5ccccc5)CC4)C3)c12 [Example 24]	+ (0 < x ≤ 20)
COCCN=C=NCCCN(C)c1nc(=O)n(-c2c(C)ccnc2C(C)C)c2nc(-c3ccccc3F)c(F)cc12 [Example 56]	++ (20 < x ≤ 40)
